targetOrTestSystem: T1, TTD (residues 134–285) of UHRF1 (Homo sapiens, UniProt Q96T88)
T1 construct: TTD (residues 134–285); GST (N, cleaved yes); made in house; host or cells: E. coli BL21 (DE3)
T1 sequence (Q96T88 134-285): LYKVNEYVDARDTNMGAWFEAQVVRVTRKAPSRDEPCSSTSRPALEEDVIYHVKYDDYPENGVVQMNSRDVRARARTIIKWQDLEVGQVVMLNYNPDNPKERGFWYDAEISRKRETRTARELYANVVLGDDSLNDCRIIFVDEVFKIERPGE
testSummary: ITC, TTD titrated into Spacer variants and other UHRF1 fragments
Assay type: binding
testParameters: ITC, TTD in syringe
Exercise: for every item that follows, state its recorded ΔH.
One number for each entry, in cal/mol.

Below, 2 molecules whose answers are already recorded.
SRA–Spacer: human UHRF1 residues 414–674 (protein, left off: GST, end not stated, cleaved) PSNHYGPIPGIPVGTMWRFRVQVSESGVHRPHVAGIHGRSNDGAYSLVLAGGYEDDVDHGNFFTYTGSGGRDLSGNKRTAEQSCDQKLTNTNRALALNCFAPINDQEGAEAKDWRSGKPVRVVRNVKGGKNSKYAPAEGNRYDGIYKVVKYWPEKGKSGFLVWRYLLRRDDDEPGPWTKEGKDRIKKLGLTMQYPEGYLEALANREREKENSKREEEEQQEGGFASPRTGKGKWKRKSAGGGPSRAGSPRRTSKKTKVEPY    -1.199E4
SpacerS666D: mutation S666D of the Spacer, negative control (protein, left off: GST, end not stated, cleaved, mutation S666D of the Spacer, negative control) PGPWTKEGKDRIKKLGLTMQYPEGYLEALANREREKENSKREEEEQQEGGFASPRTGKGKWKRKSAGGGPSRAGSPRRTDKKTKVEPY    -1.219E4

Okay, next one:
QUERY: Hello, please tell me recorded ΔH for this one: SpacerS639D: mutation S639D of the Spacer, negative control (protein, left off: GST, end not stated, cleaved, mutation S639D of the Spacer, negative control) PGPWTKEGKDRIKKLGLTMQYPEGYLEALANREREKENSKREEEEQQEGGFADPRTGKGKWKRKSAGGGPSRAGSPRRTSKKTKVEPY
RESULT: -1.125E4
